Ref: PubChem BioAssay AID1159580

- experiment: chemical genetic growth profiling, strain panel (AID 1159580);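 also: tested at 20 µM; growth read once vehicle control cultures reached saturation at 30 °C; 1 = growth at the plate median or of vehicle wells; lower values mean less growth of the strain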
- setup-conditions: S. cerevisiae deletion strains, growth OD, locus YDL074C, strain BRE1, hits give low values
Screen size: about 5,500 compounds; about 2,000 (36%) were called active. Another 18% or so got no clear call; they are omitted. The list shows a part of the results.
What normalized growth was measured for each of the following?
One number for each entry.

Sample answers from the record:
Nc1ccc(C(=O)NCC(=O)O)cc1: 0.992
OC[C@@H]1CCCN2CCCC[C@H]12: 1.01
C1CCN2CC3CC(CN4CCCCC34)C2C1 (stereo not drawn): 1.01
O=C1O[C@H](C(O)CO)C(O)=C1O (stereo partly drawn): 0.997
COc1cc(OC)c2c(=O)c(-c3ccccc3)c(C)oc2c1OC: 1.02

Provide the reported normalized growth of each entry below, same order.
1. OC[C@@H](O)[C@@H](O[C@@H]1O[C@H](CO)[C@@H](O)[C@H](O)[C@H]1O)[C@H](O)[C@@H](O)CO
2. CSCCC(NC=O)C(=O)NC(C)C(=O)O (stereo not drawn)
3. C1CCN2C[C@@H]3C[C@H](CN4CCCC[C@@H]34)[C@H]2C1

1.01
1.02
1.01

---

- experiment: chemical genetic growth profiling, strain panel (AID 1159580);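 also: tested at 20 µM; growth read once vehicle control cultures reached saturation at 30 °C; 1 = growth at the plate median or of vehicle wells; lower values mean less growth of the strain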
- setup-conditions: S. cerevisiae deletion strains, growth OD, locus YAL021C, strain ccr4, hits give low values
Screen size: about 5,500 compounds; about 2,000 (36%) were called active. Not shown: some 18% with an inconclusive outcome. Some of the results follow.
Response field label: string, one of t (normalized growth strictly below 1) or f.

CC(C)=CCC[C@](C)(O)C1CC=C(C)CC1 (stereo partly drawn): t
CC(=O)c1c(O)c(C)c(O)c2c1OC1=CC(=O)C(C(C)=O)C(=O)C12C (stereo not drawn): t

Consider now this further molecule.
Consider the molecule O=C(NC(=O)c1c(F)cccc1F)Nc1ccc(Cl)cc1 . Is its normalized growth strictly less than 1?
f

---

- experiment: chemical genetic growth profiling, strain panel (AID 1159580);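 also: tested at 20 µM; growth read once vehicle control cultures reached saturation at 30 °C; 1 = growth at the plate median or of vehicle wells; lower values mean less growth of the strain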
- setup-conditions: S. cerevisiae deletion strains, growth OD, locus YIL125W, strain kgd1, hits give low values
Hit rate of the full screen: of about 5,500 compounds, about 2,000 (36%) were called active. Roughly 18% stayed inconclusive and do not appear here. Some of the results follow.
test-readout: normalized growth
Answers are plain numbers.

CC1(C)C(C(Cl)Cl)C2(Cl)C(Cl)C(Cl)C1(Cl)C2(Cl)Cl (configuration not stated): 0.979
C=CC(C1=CC(=O)C(OC)=CC1=O)c1ccc(O)cc1 (configuration not stated): 0.987
O=C1O[C@H](C(O)CO)C(O)=C1O (some centres not stated): 0.967

Give measured normalized growth for every item shown.
1. c1ccc2c(c1)cc1ccc3cccc4ccc2c1c34
2. CCCCC(CC)CN1CN(CC(CC)CCCC)CC(C)(N)C1 (configuration not stated)
3. C=CC(C1=CC(=O)C(OC)=CC1=O)c1ccccc1 (configuration not stated)
4. C=CC(C1=CC(=O)C(OC)=CC1=O)c1ccc(OC)cc1 (configuration not stated)

1: 1.01; 2: 1.01; 3: 0.963; 4: 0.952

---

- experiment: chemical genetic growth profiling, strain panel (AID 1159580);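 also: tested at 20 µM; growth read once vehicle control cultures reached saturation at 30 °C; 1 = growth at the plate median or of vehicle wells; lower values mean less growth of the strain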
- setup-conditions: S. cerevisiae deletion strains, growth OD, locus YMR078C, strain ctf18
Among all 5,500 compounds or so, about 2,000 (36%) were called active. Another 18% or so got no clear call; they are omitted. Rule as the data show it: active = normalized growth mostly below about 0.91 (no sharp cut-off); inconclusive = no clear call, values can overlap the other calls; inactive = mostly above about 0.92. This is one part of the list.
Just give me one of these, please: active, inactive

Which outcome was assigned to C=CC(C1=CC(=O)C(OC)=CC1=O)c1ccc(O)cc1 (centres undefined) in this test?
inactive

Next up: C[C@H]1[C@H]2CCC3C4CC=C5C[C@@H](N(C)C)CC[C@]5(C)C4CC[C@@]32CN1C (some centres undefined)
inactive

Next: C=CC(C1=CC(=O)C(OC)=CC1=O)c1ccc(OC)cc1 (centres undefined)
inactive

Also check O=C1C=CC2=C3c4cc(O)c(O)cc4CC3(O)COC2=C1O (centres undefined)
inactive

Try CC(C)N(C(=O)SCC(Cl)=C(Cl)Cl)C(C)C next.
inactive

For C=CC(C1=CC(=O)C=CC1=O)c1ccccc1 (centres undefined) then?
inactive
